System: LNCaP tumor-transplanted mouse
Experiment: Internal radioactivity distribution using LNCaP tumor-transplanted mouse
Type: in vivo
Conditions: 1 h after administration
Experimental readout: Lung (% ID/g)

{"Compound": "O=C([O-])CN(CCN(CCc1ccc(NC(=O)CCCCCNC(=O)CCC(=O)NCCCC[C@H](NC(=O)N[C@@H](CCC(=O)O)C(=O)O)C(=O)O)cc1)CCN(CC(=O)[O-])Cc1cccc(C(=O)[O-])n1)Cc1cccc(C(=O)[O-])n1.[111In+3] [[^111In]In-Neunpa-1, reference compound]", "Experimental readout": "Lung", "Value measured": 1.75}

###

Quick list: LNCaP Tumor per entry.
Tested on: LNCaP tumor-transplanted mouse
Experiment: Internal radioactivity distribution using LNCaP tumor-transplanted mouse
Format: in vivo
Details: 48 h after administration

{"Compound": "O=C([O-])CN1CCN(C(CCC(=O)NCCCC[C@H](NC(=O)N[C@@H](CCC(=O)O)C(=O)O)C(=O)O)C(=O)[O-])CCN(CC(=O)[O-])CCN(C(CCC(=O)Nc2ccccc2)C(=O)[O-])CC1.[111In+3] (some centres unmarked) [[^111In]In-PSMA-DB, reference compound]", "LNCaP Tumor, % ID/g": 1.69}
{"Compound": "O=C([O-])CN(CCN(CCc1ccc(NC(=O)[C@H](CCCCNC(=O)CCC(=O)NCCCC[C@H](NC(=O)N[C@@H](CCC(=O)O)C(=O)O)C(=O)O)NC(=O)CCCc2ccc(I)cc2)cc1)CCN(CC(=O)[O-])Cc1cccc(C(=O)[O-])n1)Cc1cccc(C(=O)[O-])n1.[111In+3] [[^111In]In-Neunpa-2]", "LNCaP Tumor, % ID/g": 4.92}
